Hey, just so you know, these numbers are from patent US20230381333A1.

Target: human GCG receptor (human, UniProt P47871 26-477)
Sequence (P47871 26-477): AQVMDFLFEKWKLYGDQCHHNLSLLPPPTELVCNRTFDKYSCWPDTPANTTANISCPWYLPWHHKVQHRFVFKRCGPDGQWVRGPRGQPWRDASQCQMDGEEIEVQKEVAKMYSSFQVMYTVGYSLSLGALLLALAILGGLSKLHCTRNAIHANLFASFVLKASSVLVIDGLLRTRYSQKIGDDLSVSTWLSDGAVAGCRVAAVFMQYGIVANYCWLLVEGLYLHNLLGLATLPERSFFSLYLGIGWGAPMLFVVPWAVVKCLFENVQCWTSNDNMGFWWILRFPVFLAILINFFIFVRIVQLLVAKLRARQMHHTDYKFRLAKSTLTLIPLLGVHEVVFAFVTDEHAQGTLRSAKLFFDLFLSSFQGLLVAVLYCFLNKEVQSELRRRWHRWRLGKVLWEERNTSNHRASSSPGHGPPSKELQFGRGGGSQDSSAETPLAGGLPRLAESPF
Assay: cell-based or functional assay
Bridge positions count the residues as written; N and C are the ends. Square brackets hold non-standard residues; d marks the D form. Ends that are not written are not given here. * marks the point of attachment. Acetyl(2-(4-imidazolyl)) = O=C(Cc1c[nH]cn1)*; Aib = CC(C)(N)C(=O)O
Catalogue of binders with associated In vitro activity compared to native-type peptide (%), vs Glucagon
Provide only the numeric value, understood in %.

Here's what some known entries look like.
> print(dat)
                                     binder  measured.value
1  Y[Aib]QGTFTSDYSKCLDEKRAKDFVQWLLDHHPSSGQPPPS (bridge 16-20) [triple agonist of SEQ ID NO: 70]            71.3
2  Y[Aib]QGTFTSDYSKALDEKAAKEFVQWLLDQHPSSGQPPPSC (bridge 16-20) [triple agonist of SEQ ID NO: 100]            12.7
3  H[Aib]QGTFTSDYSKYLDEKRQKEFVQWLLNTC (bridge 16-20) [triple agonist of SEQ ID NO: 51]               2
4  H[Aib]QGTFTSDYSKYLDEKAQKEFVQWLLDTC (bridge 16-20) [triple agonist of SEQ ID NO: 30]             0.7
5  {Acetyl(2-(4-imidazolyl))}-[Aib]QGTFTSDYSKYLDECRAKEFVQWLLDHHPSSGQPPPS (bridge 15-19) [triple agonist of SEQ ID NO: 73]             5.4

// query State the recorded In vitro activity compared to native-type peptide (%), vs Glucagon for this entry: H[Aib]QGTFTSDYSKYLDEKACKEFVQWLLAQ (bridge 16-20) [triple agonist of SEQ ID NO: 31]
// result 2.2

// query State the recorded In vitro activity compared to native-type peptide (%), vs Glucagon for this entry: {Acetyl(2-(4-imidazolyl))}-[Aib]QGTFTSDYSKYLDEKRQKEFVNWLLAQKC (bridge 15-19) [triple agonist of SEQ ID NO: 93]
// result 0.3

// query State the recorded In vitro activity compared to native-type peptide (%), vs Glucagon for this entry: {Acetyl(2-(4-imidazolyl))}-[Aib]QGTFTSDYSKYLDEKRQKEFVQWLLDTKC (bridge 15-19) [triple agonist of SEQ ID NO: 89]
// result 0.7
